In this section we review reported IC50 values for a set of molecules.
molecular target: INSR (Homo sapiens, UniProt P06213); construct: purchased CARNA BIOSCIENCE 08-142; experiment: INSR inhibition assay (Caliper EZ Reader); assay type: biochemical; conditions: enzyme assay
Sequence (P06213 989-1382 limits assumed): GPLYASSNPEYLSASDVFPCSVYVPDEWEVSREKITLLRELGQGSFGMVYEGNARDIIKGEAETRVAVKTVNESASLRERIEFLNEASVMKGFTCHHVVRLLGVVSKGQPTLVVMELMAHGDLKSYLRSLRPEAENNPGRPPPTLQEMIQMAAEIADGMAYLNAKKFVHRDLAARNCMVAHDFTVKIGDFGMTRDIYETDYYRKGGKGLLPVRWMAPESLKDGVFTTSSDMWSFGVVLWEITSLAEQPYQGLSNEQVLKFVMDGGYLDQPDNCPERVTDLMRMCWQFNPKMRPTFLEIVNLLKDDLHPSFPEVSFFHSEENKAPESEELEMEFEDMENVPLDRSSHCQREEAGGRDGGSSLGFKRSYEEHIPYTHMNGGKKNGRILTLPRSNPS
Structures can show the parent of a compound that is named as a salt.
Give the quantity in nM, number only.

# annotated cases, reported IC50 shown
• C=CC(=O)Nc1cc(Nc2nccc(-c3cc(C(N)=O)cc4c3ccn4C)n2)c(OC)cc1N(C)CCN(C)C [Example 34, hydrochloride] = 514
• C=CC(=O)Nc1cc(Nc2nccc(-n3nc(NC)c4ccccc43)n2)c(OC)cc1N(C)CCN(C)C = 134
• C=CC(=O)Nc1cc(Nc2nccc(-n3cc(S(N)(=O)=O)c4ccccc43)n2)c(OC)cc1N(C)CCN(C)C = 67.6
• C=CC(=O)Nc1cc(Nc2nccc(-n3nc(N(C)C)c4ncccc43)n2)c(OC)cc1N(C)CCN(C)C = 1200
• C=CC(=O)Nc1cc(Nc2nccc(-n3nc(N)c4ccccc43)n2)c(OC)cc1N(C)CCN(C)C = 19.3

Now look at this one.
-- ask What IC50 appears in the records for this molecule with INSR (Homo sapiens, UniProt P06213)? C=CC(=O)Nc1cc(Nc2nccc(-n3nc(NCC)c4ccccc43)n2)c(OC)cc1N(C)CCN(C)C
-- reply 1270
